Reference source for all entries: paper PMC5540273

- Test system: MLCK;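 note: KINOMEscan kinase panel screen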
- Construct: gene MYLK3
- APPLIED CONDITIONS: concentration: 1 μM, replicates: in singlicate; n = 1
In this section we review reported %Inh values for a set of compounds.
EXPERIMENTAL READOUT: %Inh (%)

| COMPOUND | SUBJECT OF TEST | EXPERIMENTAL READOUT | VALUE UNITS | MEASURED |
| --- | --- | --- | --- | --- |
| Cc1ccc(O)cc1Nc1cc(C(F)(F)F)nc2ccc(-c3ccncc3)cc12 [GW630823] | MLCK | %Inh | % | 12 |
| Cn1cc(-c2ccc3c(c2)CCN3C(=O)Cc2cccc(C(F)(F)F)c2)c2c(N)ncnc21 [GSK2606414] | MLCK | %Inh | % | 12 |
| C[C@H]1CC[C@@H](C(=O)Nc2ccccc2)CN1c1cc(-c2ccc3c(N)n[nH]c3c2)nc(N)n1 [GSK2283293] | MLCK | %Inh | % | 0 |
| O=C(CCO)NCCn1ccc2ncnc(Nc3ccc(Oc4cccc(C(F)(F)F)c4)c(Cl)c3)c21 | MLCK | %Inh | % | 0 |
| N#Cc1ccc(Oc2ccc(Nc3ncnc4cc[nH]c34)cc2Cl)cc1 | MLCK | %Inh | % | 8 |
| CCc1nc(-c2cccc(N(C)S(=O)(=O)c3ccccc3)c2)c(-c2ccnc(Nc3ccc(N4CCN(C(C)=O)CC4)nc3)n2)s1 [GSK1645895] | MLCK | %Inh | % | 0 |
| NC(=O)c1sc(-n2cnc3ccccc32)cc1OCc1ccccc1F [GSK1024306] | MLCK | %Inh | % | 0 |
| OCCOCCn1ccc2ncnc(Nc3ccc(Oc4cccc(Cl)c4)c(Cl)c3)c21 | MLCK | %Inh | % | 0 |
| Cl.Cl.c1ccc(-c2cc3ccncc3cc2OC2CCNCC2)cc1 [GSK1122999] | MLCK | %Inh | % | 10 |
| O=C(NCCCN1CCCC1=O)c1cnc(NCc2cc(Cl)ccc2Cl)nc1NC1CCNCC1 | MLCK | %Inh | % | 11 |
| Cl.c1ccc(Cn2ncc3cc(Nc4ncnc5ccccc45)ccc32)cc1 [GW273749] | MLCK | %Inh | % | 0 |
| O=c1cc(N2CCOCC2)nc2n(Cc3cccc(Cl)c3)ccn12 [GSK2296823] | MLCK | %Inh | % | 0 |
| Oc1ccc2ncnc(Nc3ccc(OCc4ccccc4)cc3)c2c1 [GI262866] | MLCK | %Inh | % | 0 |
| CCc1nc(-c2cccc(C)c2)c(-c2ccnc(NC(=O)c3ccccc3)c2)s1 | MLCK | %Inh | % | 0 |
| O=C(c1ccc(-c2cc(-c3c[nH]nc3-c3ccccn3)ccn2)cc1)N1CCCC1 [GW792479] | MLCK | %Inh | % | 0 |
| CN1c2ccc(-c3ccc(C(=O)NCCO)cc3)cc2-c2[nH]ncc2S1(=O)=O | MLCK | %Inh | % | 0 |
| CCCc1ccc(S(=O)(=O)NC2CCN(c3ccnc(Nc4ccc(OC)cc4)n3)C2)cc1 (stereo not drawn) [GSK1379737] | MLCK | %Inh | % | 11 |
| Clc1cccc(-c2nc(Nc3ccncc3)c3ccccc3n2)c1 [GW873004] | MLCK | %Inh | % | 0 |
